Test system: NCI-H1563
Test: relative viability (nuclei count vs DMSO), 5 days (fraction); higher = more cells survive
Details: first compound 0.04 µM
RECORDED ENDPOINT: relative viability
The response must contain the number and no unit.

Task: Sample C[C@@H]1CN(CC(=O)Nc2ccc3c(c2)Cc2cccc(-c4cc(=O)cc(N5CCOCC5)o4)c2S3)C[C@H](C)O1 + Cc1nc(Nc2ncc(C(=O)Nc3c(C)cccc3Cl)s2)cc(N2CCN(CCO)CC2)n1 [Dasatinib] (partner 0.075 µM) — what was its relative viability?
Result: 0.433

Task: Thanks! And Clc1ccc(Nc2nnc(Cc3ccncc3)c3ccccc23)cc1 [Vatalanib] + Cc1nc(Nc2ncc(C(=O)Nc3c(C)cccc3Cl)s2)cc(N2CCN(CCO)CC2)n1 [Dasatinib] (partner 0.075 µM) ?
Result: 0.45

Task: Thanks! And COc1cc(N2CCC(C(N)=O)CC2)ccc1Nc1nc(N)c(Cl)c(Nc2ccccc2S(=O)(=O)C(C)C)n1 [HG-5-88-01] + Nc1nc2[nH]cc(CCc3ccc(C(=O)N[C@@H](CCC(=O)O)C(=O)O)cc3)c2c(=O)[nH]1 [Pemetrexed] (partner 0.2 µM) ?
Result: 0.798

Task: Thanks! And COc1cc(N2CCC(C(N)=O)CC2)ccc1Nc1nc(N)c(Cl)c(Nc2ccccc2S(=O)(=O)C(C)C)n1 [HG-5-88-01] + CS(=O)(=O)CCNCc1ccc(-c2ccc3ncnc(Nc4ccc(OCc5cccc(F)c5)c(Cl)c4)c3c2)o1 [Lapatinib] (partner 2 µM) ?
Result: 0.872

Task: Thanks! And COc1cc(N2CCC(C(N)=O)CC2)ccc1Nc1nc(N)c(Cl)c(Nc2ccccc2S(=O)(=O)C(C)C)n1 [HG-5-88-01] + COc1cc2c(Oc3ccc(NC(=O)C4(C(=O)Nc5ccc(F)cc5)CC4)cc3F)ccnc2cc1OCCCN1CCOCC1 [Foretinib] (partner 0.25 µM) ?
Result: 1

Task: Thanks! And COc1cc(N2CCC(C(N)=O)CC2)ccc1Nc1nc(N)c(Cl)c(Nc2ccccc2S(=O)(=O)C(C)C)n1 [HG-5-88-01] + Cc1nc(NC(=O)N2CCC[C@H]2C(N)=O)sc1-c1ccnc(C(C)(C)C(F)(F)F)c1 [Alpelisib] (partner 2 µM) ?
Result: 1.05

Task: Thanks! And Clc1ccc(Nc2nnc(Cc3ccncc3)c3ccccc23)cc1 [Vatalanib] + COc1cccc2cc(-c3nc([C@H]4CC[C@H](C(=O)O)CC4)n4ncnc(N)c34)[nH]c12 [OSI-027] (partner 0.5 µM) ?
Result: 0.735

Task: Thanks! And C[C@@H]1CN(CC(=O)Nc2ccc3c(c2)Cc2cccc(-c4cc(=O)cc(N5CCOCC5)o4)c2S3)C[C@H](C)O1 + CS(=O)(=O)N1CCN(Cc2cc3nc(-c4cccc5[nH]ncc45)nc(N4CCOCC4)c3s2)CC1 [Pictilisib] (partner 1 µM) ?
Result: 0.616

Task: Thanks! And C[C@@H]1CN(CC(=O)Nc2ccc3c(c2)Cc2cccc(-c4cc(=O)cc(N5CCOCC5)o4)c2S3)C[C@H](C)O1 + Nc1nc2[nH]cc(CCc3ccc(C(=O)N[C@@H](CCC(=O)O)C(=O)O)cc3)c2c(=O)[nH]1 [Pemetrexed] (partner 0.2 µM) ?
Result: 0.661

Task: Thanks! And Clc1ccc(Nc2nnc(Cc3ccncc3)c3ccccc23)cc1 [Vatalanib] + CC(C)C[C@H](NC(=O)[C@H](Cc1ccccc1)NC(=O)c1cnccn1)B(O)O [Bortezomib] (partner 0.002 µM) ?
Result: 0.868
